Origin of values: ChEMBL document CHEMBL5380773

Field: MHC. Provide a value for each of the molecules that follow.
System: Erythrocyte
test-method-notes: Hemolytic activity against mouse red blood cells incubated for 1 hr
Assay type: toxicity, cell-based
Numbered stars: 1 amine (or outer) side, 2 acyl side, 3 side chain; on linkers, the order of the positions; unused ones are H or OH. Square brackets hold non-standard residues; d marks the D form. Peptide text beside a SMILES is read from it. * marks the point of attachment. X9 = NC(=O)CN(C[C@H](Cc1ccccc1)N*)S(=O)(=O)c1ccccc1[N+](=O)[O-]; X19 = COc1ccc(S(=O)(=O)N(CC(N)=O)C[C@H](Cc2ccccc2)N*)cc1; X23 = NC(=O)CN(C[C@H](Cc1ccccc1)N*)S(=O)(=O)c1ccc(F)cc1; X16 = CC(C)C[C@@H](CN(CC(N)=O)S(=O)(=O)c1ccc(Cl)cc1)N*; X22 = CC(C)C[C@@H](CN(CC(N)=O)S(=O)(=O)c1ccc(F)cc1)N*; X27 = Cc1ccc(S(=O)(=O)N(CC(N)=O)C[C@H](CC(C)C)N*)cc1; X6 = COc1ccc(S(=O)(=O)N(CC(N)=O)C[C@H](CC(C)C)N*)cc1; X8 = CC(C)C[C@@H](CN(CC(N)=O)S(=O)(=O)c1ccc(I)cc1)N*; X5 = CC(C)c1cc(C(C)C)c(S(=O)(=O)*)c(C(C)C)c1; X3 = N[C@@H](Cc1ccccc1)CN(CC(=O)[*:2])[*:1]; X2 = CC(C)C[C@H](N)CN(CC(=O)[*:2])[*:1]; X10 = O=[N+]([O-])c1ccc(S(=O)(=O)*)cc1; Brosyl = O=S(=O)(c1ccc(Br)cc1)*; X1 = O=S(=O)(c1ccc(I)cc1)*

These solved cases illustrate the format of a correct answer.
{"columns": ["molecule", "system-name", "MHC"],
 "data": [
  ["CC(C)C[C@@H](CN(CC(N)=O)S(=O)(=O)c1ccc(I)cc1)NC(=O)[C@H](CCCCN)NC(=O)[C@H](CCCCN)NC(=O)[C@H](CC(C)C)NC(=O)[C@H](CC(C)C)NC(=O)[C@H](CCCCN)NC(=O)[C@H](CC(C)C)NC(=O)[C@@H](N)Cc1ccccc1 (H-FLKLLKK-X8)", "Erythrocyte", "256 µg/mL"],
  ["CC(C)C[C@H](N)CN(CC(=O)N[C@@H](CCCCN)C(=O)N[C@@H](CC(C)C)C(=O)N[C@@H](CC(C)C)C(=O)N[C@@H](CCCCN)C(=O)N[C@@H](CCCCN)C(=O)N[C@@H](CC(C)C)C(=O)N[C@@H](CC(C)C)C(N)=O)S(=O)(=O)c1ccc(I)cc1 (X1-[X2]KLLKKLL-NH2)", "Erythrocyte", "256 µg/mL"],
  ["CC(C)C[C@H](NC(=O)[C@H](CC(C)C)NC(=O)[C@H](CCCCN)NC(=O)[C@H](CCCCN)NC(=O)[C@H](CC(C)C)NC(=O)[C@H](CC(C)C)NC(=O)[C@H](CCCCN)NC(=O)CN(C[C@@H](N)Cc1ccccc1)S(=O)(=O)c1ccc(I)cc1)C(N)=O (X1-[X3]KLLKKLL-NH2)", "Erythrocyte", "32 µg/mL"],
  ["CC(C)C[C@H](NC(=O)[C@H](CC(C)C)NC(=O)[C@H](CCCCN)NC(=O)[C@H](CC(C)C)NC(=O)[C@@H](N)Cc1ccccc1)C(=O)N[C@@H](CCCCN)C(=O)N[C@@H](CCCCN)C(=O)N[C@@H](Cc1ccccc1)CN(CC(N)=O)S(=O)(=O)c1ccccc1[N+](=O)[O-] (H-FLKLLKK-X9)", "Erythrocyte", "256 µg/mL"],
  ["CC(C)C[C@H](NC(=O)[C@H](CC(C)C)NC(=O)[C@H](CCCCN)NC(=O)[C@H](CCCCN)NC(=O)[C@H](CC(C)C)NC(=O)[C@H](CC(C)C)NC(=O)[C@H](CCCCN)NC(=O)CN(C[C@@H](N)Cc1ccccc1)S(=O)(=O)c1ccc(Br)cc1)C(N)=O (Brosyl-[X3]KLLKKLL-NH2)", "Erythrocyte", "64 µg/mL"]
]}

# return MHC for each item in the list
1. COc1ccc(S(=O)(=O)N(CC(N)=O)C[C@H](Cc2ccccc2)NC(=O)[C@H](CCCCN)NC(=O)[C@H](CCCCN)NC(=O)[C@H](CC(C)C)NC(=O)[C@H](CC(C)C)NC(=O)[C@H](CCCCN)NC(=O)[C@H](CC(C)C)NC(=O)[C@@H](N)Cc2ccccc2)cc1 (H-FLKLLKK-X19)
2. CC(C)C[C@@H](CN(CC(N)=O)S(=O)(=O)c1ccc(F)cc1)NC(=O)[C@H](CCCCN)NC(=O)[C@H](CCCCN)NC(=O)[C@H](CC(C)C)NC(=O)[C@H](CC(C)C)NC(=O)[C@H](CCCCN)NC(=O)[C@H](CC(C)C)NC(=O)[C@@H](N)Cc1ccccc1 (H-FLKLLKK-X22)
3. CC(C)C[C@H](NC(=O)[C@H](CC(C)C)NC(=O)[C@H](CCCCN)NC(=O)[C@H](CCCCN)NC(=O)[C@H](CC(C)C)NC(=O)[C@H](CC(C)C)NC(=O)[C@H](CCCCN)NC(=O)CN(C[C@@H](N)Cc1ccccc1)S(=O)(=O)c1c(C(C)C)cc(C(C)C)cc1C(C)C)C(N)=O (X5-[X3]KLLKKLL-NH2)
4. Cc1ccc(S(=O)(=O)N(CC(N)=O)C[C@H](CC(C)C)NC(=O)[C@H](CCCCN)NC(=O)[C@H](CCCCN)NC(=O)[C@H](CC(C)C)NC(=O)[C@H](CC(C)C)NC(=O)[C@H](CCCCN)NC(=O)[C@H](CC(C)C)NC(=O)[C@@H](N)Cc2ccccc2)cc1 (H-FLKLLKK-X27)
5. CC(C)C[C@@H](CN(CC(N)=O)S(=O)(=O)c1ccc(Cl)cc1)NC(=O)[C@H](CCCCN)NC(=O)[C@H](CCCCN)NC(=O)[C@H](CC(C)C)NC(=O)[C@H](CC(C)C)NC(=O)[C@H](CCCCN)NC(=O)[C@H](CC(C)C)NC(=O)[C@@H](N)Cc1ccccc1 (H-FLKLLKK-X16)
6. COc1ccc(S(=O)(=O)N(CC(N)=O)C[C@H](CC(C)C)NC(=O)[C@H](CCCCN)NC(=O)[C@H](CCCCN)NC(=O)[C@H](CC(C)C)NC(=O)[C@H](CC(C)C)NC(=O)[C@H](CCCCN)NC(=O)[C@H](CC(C)C)NC(=O)[C@@H](N)Cc2ccccc2)cc1 (H-FLKLLKK-X6)

1: 256 µg/mL; 2: 256 µg/mL; 3: 16 µg/mL; 4: 256 µg/mL; 5: 256 µg/mL; 6: 256 µg/mL

For each of the molecules below, state MHC.
1. CC(C)C[C@H](NC(=O)[C@H](CC(C)C)NC(=O)[C@H](CCCCN)NC(=O)[C@H](CC(C)C)NC(=O)[C@@H](N)Cc1ccccc1)C(=O)N[C@@H](CCCCN)C(=O)N[C@@H](CCCCN)C(=O)N[C@@H](Cc1ccccc1)CN(CC(N)=O)S(=O)(=O)c1ccc(F)cc1 (H-FLKLLKK-X23)
2. CC(C)C[C@H](NC(=O)[C@H](CC(C)C)NC(=O)[C@H](CCCCN)NC(=O)[C@H](CCCCN)NC(=O)[C@H](CC(C)C)NC(=O)[C@H](CC(C)C)NC(=O)[C@H](CCCCN)NC(=O)CN(C[C@@H](N)Cc1ccccc1)S(=O)(=O)c1ccc([N+](=O)[O-])cc1)C(N)=O (X10-[X3]KLLKKLL-NH2)

256 µg/mL
256 µg/mL
